B1: HDV Ribozyme (parent)
chain: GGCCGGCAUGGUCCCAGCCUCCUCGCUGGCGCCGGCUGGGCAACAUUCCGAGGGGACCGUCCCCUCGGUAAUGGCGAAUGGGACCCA

variants of: B1; test: self-cleavage, relative activity (ratio to wild type); higher = more cleavage; co-transcriptional
quantity: self-cleavage

Form field self-cleavage, entry C44U G74A : 0.427

Form field self-cleavage, entry C14U U72C : 0.532

Form field self-cleavage, entry G29U U72C : 0.0811

Form field self-cleavage, entry C19G G54A : 0.116

Form field self-cleavage, entry C49U G76U : 1.18

Form field self-cleavage, entry C26U C61G : 1.19

Form field self-cleavage, entry C21U C49A : 0.291

Form field self-cleavage, entry C22U G34A : 0.0468

Form field self-cleavage, entry C4G U46A : 0.0573

Form field self-cleavage, entry C58A U72A : 0.883

Form field self-cleavage, entry G29A U46C : 0.138

Form field self-cleavage, entry C36A G82C : 0.112

Form field self-cleavage, entry C44U G74C : 0.233

Form field self-cleavage, entry G29U A56G : 0.227

Form field self-cleavage, entry C44A G74A : 0.381

Form field self-cleavage, entry G74U A78G : 0.185

Form field self-cleavage, entry G10A U79C : 0.0882

Form field self-cleavage, entry G6C A8U : 0.346

Form field self-cleavage, entry U9A G35C : 0.44

Form field self-cleavage, entry C64U G68A : 0.821

Form field self-cleavage, entry G34U C75A : 0.107

Form field self-cleavage, entry G5U C58A : 0.277

Form field self-cleavage, entry C41U C66U : 1

Form field self-cleavage, entry G25A U65A : 0.122

Form field self-cleavage, entry C62G G80U : 0.185

Form field self-cleavage, entry A16G G80A : 0.243

Form field self-cleavage, entry G50U A87G : 0.927

Form field self-cleavage, entry C30U A42U : 0.0615

Form field self-cleavage, entry G28U G76C : 0.242

Form field self-cleavage, entry C21U G38A : 0.177

Form field self-cleavage, entry G5C C41G : 0

Form field self-cleavage, entry U20A C84G : 0.196

Form field self-cleavage, entry C63A G80A : 0.388

Form field self-cleavage, entry G29A A45U : 0.0332

Form field self-cleavage, entry C48U A71U : 0.585

Form field self-cleavage, entry G1C C62A : 0.101

Form field self-cleavage, entry G11U G59A : 0.499

Form field self-cleavage, entry U37G C41G : 0.332
